- tested_target: T1, TNFR1 (Homo sapiens, UniProt P19438)
- T1 chain: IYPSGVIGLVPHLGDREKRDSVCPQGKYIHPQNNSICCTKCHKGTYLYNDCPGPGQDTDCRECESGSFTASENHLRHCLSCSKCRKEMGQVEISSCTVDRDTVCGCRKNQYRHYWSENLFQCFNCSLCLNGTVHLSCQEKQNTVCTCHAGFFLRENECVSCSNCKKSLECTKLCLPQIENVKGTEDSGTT
- test_protocol: yeast display SC50
endpoint: apparent Kd (screen) (nM)

a. E44A (designed binder) SMEEEVEKAAKEYEKKKKEAIEKHLEKLKAKDKEAAERFLKELAEAAKEYAKDEAKTMSEEEAKRRAKKYKEKVLLSELSEEEQKEIKEAEEKLVRTILKYVEEAAK
b. F39G (designed binder) SMEEEVEKAAKEYEKKKKEAIEKHLEKLKAKDKEAAERGLKELEEAAKEYAKDEAKTMSEEEAKRRAKKYKEKVLLSELSEEEQKEIKEAEEKLVRTILKYVEEAAK
Hi, I'm comparing two records. Which one has the lower apparent Kd (screen), a or b ? Returns: label corresponding to the selected item.
a
